# assayedSystem: Glutamate NMDA receptor
# experiment: In vitro concentration required to inhibit specific [3H]MK-801 radioligand binding to N-methyl-D-aspartate (NMDA) receptor on rat brain membrane
# IC50 per record follows
resultType: IC50 (nM)

- CN(C(=N)N(C)c1cccc2ccccc12)c1cccc2ccccc12: 69
- CN(C(N)=Nc1cccc2ccccc12)c1cccc(N)c1: 2070
- NC(=Nc1cccc2ccccc12)Nc1ccccc1I: 209
- CCN(C(N)=Nc1cccc2ccccc12)c1cccc2ccccc12: 117
- CC(C)c1ccc(NC(=N)Nc2ccc(C(C)C)cc2)cc1: 23200
- CC(C)c1ccccc1N=C(N)N(C)c1cccc2ccccc12: 859

----------
We begin with a simple list: items and their reported IC50.
# assayedSystem: Glutamate NMDA receptor
# experiment: In vitro concentration required to inhibit specific [3H]MK-801 radioligand binding to N-methyl-D-aspartate (NMDA) receptor on rat brain membrane
resultType: IC50 (µM)

* CC(C)(C)c1ccccc1NC(=N)Nc1ccccc1C(C)(C)C | 38.3
* COc1cccc(N=C(N)Nc2cccc(OC)c2)c1 | 0.493
* N=C(Nc1cccc2ccccc12)N1CCCCC1 | 10
* CN(C(=N)Nc1cccc2ccccc12)c1cccc([N+](=O)[O-])c1 | 0.087
* N=C(Nc1cccc2ccccc12)Nc1cccc2ccccc12 | 0.33
* Cc1ccccc1NC(=N)Nc1ccccc1C [DITOLYLGUANIDINE] | 9.12

----------
# assayedSystem: Glutamate NMDA receptor
# experiment: In vitro concentration required to inhibit specific [3H]MK-801 radioligand binding to N-methyl-D-aspartate (NMDA) receptor on rat brain membrane
Quick reference: IC50 of the listed items.
resultType: IC50 (nM)

* CCc1cccc(N(C)C(N)=Nc2cccc3ccccc23)c1 | 36
* Cc1cccc(N=C(N)N(C)c2cccc(C)c2)c1 | 1990
* CCc1cccc(N(CC)C(N)=Nc2cccc3ccccc23)c1 | 73
* CN(C(N)=Nc1cccc2ccccc12)c1cccc(N=[N+]=[N-])c1 | 65
* CCc1ccccc1NC(=N)Nc1ccccc1CC | 820
* C/[N+](=C(/[NH-])Nc1cccc([N+](=O)[O-])c1)c1cccc2ccccc12 | 2800
* NC(=Nc1cccc2ccccc12)N(c1ccccc1)c1cccc2ccccc12 | 484
* CN(C(N)=Nc1cccc2ccccc12)c1ccccc1 | 1030
* Cc1ccc(N=C(N)Nc2ccc(C)cc2)cc1 | 13300
* N=C(Nc1cccc2ccccc12)N1CCC(c2ccccc2)CC1 | 10000
* CCc1cccc(NC(=N)Nc2cccc(CC)c2)c1 | 168

----------
# experiment: Tested in vitro for the concentration required to inhibit specific [3H]DTG radioligand binding to sigma receptor on guinea pig brain membrane
This listing pairs compounds with measured IC50.
resultType: IC50 (nM)

• NC(=Nc1ccccc1-c1ccccc1)Nc1ccccc1-c1ccccc1 = 8110
• CC(C)(C)c1ccccc1NC(=N)Nc1ccccc1C(C)(C)C = 356
• CCc1ccccc1NC(=N)Nc1ccccc1CC = 14
• CCc1ccc(NC(=N)Nc2ccc(CC)cc2)cc1 = 245

----------
Item-by-item account of pIC50
# assayedSystem: Glutamate NMDA receptor
# experiment: In vitro concentration required to inhibit specific [3H]MK-801 radioligand binding to N-methyl-D-aspartate (NMDA) receptor on rat brain membrane
pIC50: −log10 of the molar value.
resultType: pIC50

• CC(C)c1ccccc1N=C(N)Nc1ccccc1C(C)C = 6.66
• NC(=Nc1cccc2ccccc12)N1CCCCCC1 = 5.00
• N=C(Nc1ccccc1)Nc1ccccc1 = 5.46
• N=C(Nc1ccc2ccccc2c1)Nc1ccc2ccccc2c1 = 4.90
• CCc1cccc(N(C)C(=N)N(CC)c2cccc3ccccc23)c1 = 7.01
• CN(C(N)=Nc1cccc(N=[N+]=[N-])c1)c1cccc2ccccc12 = 5.77
• CCc1cccc(NC(=N)Nc2cccc3ccccc23)c1 = 7.41
• CCc1cccc(N(C)C(=N)N(C)c2cccc3ccccc23)c1 = 7.00
• N=C(Nc1cccc2c1CCC2)Nc1cccc2c1CCC2 = 6.30
• CC(C)c1cccc(NC(=N)Nc2cccc(C(C)C)c2)c1 = 6.39
• Cc1cccc(NC(=N)Nc2cccc3ccccc23)c1 = 6.72
• CCc1cccc(N=C(N)N2CCC(c3ccccc3)CC2)c1 = 5.00
• CN(C(=N)N(c1ccccc1)c1cccc2ccccc12)c1cccc2ccccc12 = 6.33
• CCc1ccc(NC(=N)Nc2ccc(CC)cc2)cc1 = 4.99
• CCc1cccc(N=C(N)N(C)c2cccc3ccccc23)c1 = 6.27
• Cc1cccc(NC(=N)Nc2cccc(C)c2)c1 = 6.47
• NC(=Nc1ccc(Br)cc1)Nc1ccc(Br)cc1 = 4.47
• NC(=Nc1ccccc1I)Nc1ccccc1I = 6.64
• CN(C(N)=Nc1cccc(N)c1)c1cccc2ccccc12 = 5.00
• NC(=Nc1ccccc1-c1ccccc1)Nc1ccccc1-c1ccccc1 = 5.00
